# Tested on: Akt phosphorylation induced by IGF-1R in HT-29 cells
# protocol-details: Western blot analysis of Akt phosphorylation induced by IGF-1R
# Type: cell-based, Human
# condition-summary: 1 nM compound 2 h, then IGF-1 10 ng/mL 10 min; HT-29
Consider the following compounds; for each one, report its phosphorylated AKT levels normalized to actin levels (pAKT/actin).
Answers are plain numbers.

compound="O=C(Nc1ccc(F)nc1)C1CCCN1c1nc2c(c(Nc3cc(C4CC4)[nH]n3)n1)CCCC2 (single isomer, unassigned) [Compound 14b]" data_value=0.49

List phosphorylated AKT levels normalized to actin levels (pAKT/actin) for every entry below, keeping the order given.
1. CC(C)c1cc(Nc2nc(N3CCCCC3C(=O)Nc3ccc(F)nc3)nc3c2CCC3)n[nH]1 (single isomer, unassigned) [Compound 16b]
2. O=C(Nc1cccnc1)C1CCCN1c1nc2c(c(Nc3cc(C4CC4)[nH]n3)n1)CCC2 (single isomer, unassigned) [Compound 3b]

0.51
1.70

###

# Tested on: MDA MB 175
# protocol-details: Cell Titer-Glo cell viability: MDA MB 175
# Type: cell-based
# condition-summary: MDA-MB-175, breast cancer; 72 h incubation, Cell Titer-Glo
pIC50: −log10 of the molar value.
recorded-metric: pIC50

Guide cases for pIC50, answers given:
molecule="O=C(Nc1ccc(F)nc1)C1CCCN1c1nc2c(c(Nc3cc(C4CC4)[nH]n3)n1)CCC2 (single isomer, unassigned) [Compound 2b]" data_value="> 5.00"
molecule="O=C(Nc1cnccn1)C1CCCN1c1nc2c(c(Nc3cc(C4CC4)[nH]n3)n1)CCC2 (single isomer, unassigned) [Compound 6b]" data_value="> 6.00"
molecule="O=C(Nc1ccc(F)nc1)C1CCN1c1nc2c(c(Nc3cc(C4CC4)[nH]n3)n1)CCC2 (racemic) [Compound 5]" data_value=6.00

Let us move to another entry and its pIC50.
Report pIC50 for O=C(Nc1ccc(F)nc1)C1CC(O)CN1c1nc2c(c(Nc3cc(C4CC4)[nH]n3)n1)CCC2 (single isomer, unassigned) [Compound 10a] please.
> 5.00

###

# Tested on: Akt phosphorylation induced by IGF-1R in HT-29 cells
# protocol-details: Western blot analysis of Akt phosphorylation induced by IGF-1R
# Format: cell-based, Human
# condition-summary: 0.1 nM compound 2 h, then IGF-1 10 ng/mL 10 min; HT-29
Task for the reader: assign each of the following compounds its reported phosphorylated AKT levels normalized to actin levels (pAKT/actin).
Give bare numbers.

Recorded phosphorylated AKT levels normalized to actin levels (pAKT/actin), per entry:
compound="CC(C)c1cc(Nc2nc(N3CCCCC3C(=O)Nc3ccc(F)nc3)nc3c2CCC3)n[nH]1 (single isomer, unassigned) [Compound 16b]" data_value=0.53
compound="O=C(Nc1ccc(F)nc1)C1CCCN1c1nc2c(c(Nc3cc(C4CC4)[nH]n3)n1)CCCC2 (single isomer, unassigned) [Compound 14b]" data_value=0.51
compound="O=C(Nc1ccc(F)nc1)C1CCCN1c1nc2c(c(Nc3cc(C4CC4)[nH]n3)n1)CCCC2 (single isomer, unassigned) [Compound 14a]" data_value=0.73

Working through the 4 compounds below one at a time, give phosphorylated AKT levels normalized to actin levels (pAKT/actin) for each.
1. CC(C)c1cc(Nc2nc(N3CCCC3C(=O)Nc3ccc(F)nc3)nc3c2CCCC3)n[nH]1 (single isomer, unassigned) [Compound 13b]
2. O=C(Nc1ccc(F)nc1)C1CCCN1c1nc2c(c(Nc3cc(C4CCCC4)[nH]n3)n1)CCCC2 (single isomer, unassigned) [Compound 15a]
3. O=C(Nc1ccc(F)nc1)C1CCCCN1c1nc2c(c(Nc3cc(C4CC4)[nH]n3)n1)CCC2 (racemic)
4. O=C(Nc1ccc(F)nc1)C1CCCCN1c1nc2c(c(Nc3cc(C4CCCC4)[nH]n3)n1)CCC2 (single isomer, unassigned) [Compound 17b]

[0.22, 0.70, 0.67, 0.83]

What phosphorylated AKT levels normalized to actin levels (pAKT/actin) value was documented for this compound, CC(C)c1cc(Nc2nc(N3CCCC3C(=O)Nc3ccc(F)nc3)nc3c2CCCC3)n[nH]1 (single isomer, unassigned) [Compound 13a] ?
0.51

###

# Test system: Akt phosphorylation induced by IGF-1R in HT-29 cells
# protocol-details: Western blot analysis of Akt phosphorylation induced by IGF-1R
# Type: cell-based, Human
# condition-summary: 100 nM compound 2 h, then IGF-1 10 ng/mL 10 min; HT-29
Provide the recorded phosphorylated AKT levels normalized to actin levels (pAKT/actin) for the entries that follow.
Answers are plain numbers.

molecule="C[C@@]1(C(=O)Nc2ccc(F)nc2)CCCN1c1nc(Nc2cc(C3CC3)n[nH]2)c2cccn2n1 [BMS-754807, reference compound]" data_value=0.02
molecule="O=C(Nc1ccc(F)nc1)C1CCCCN1c1nc2c(c(Nc3cc(C4CC4)[nH]n3)n1)CCC2 (single isomer, unassigned) [Compound 9a]" data_value=0.02
molecule="CC(C)c1cc(Nc2nc(N3CCCC3C(=O)Nc3ccc(F)nc3)nc3c2CCC3)n[nH]1 (single isomer, unassigned)" data_value=0.02

Please turn your attention to the following entry.
Quick check: phosphorylated AKT levels normalized to actin levels (pAKT/actin) of O=C(Nc1cccnc1)C1CCCN1c1nc2c(c(Nc3cc(C4CC4)[nH]n3)n1)CCC2 (single isomer, unassigned) ?
0.02
